Overview of recorded pIC50 for various compounds
- ASSAYED_SYSTEM: SREBP-2 (Homo sapiens (Human), UniProt Q12772)
- TEST_METHOD_NOTES: In vitro assay SREBP-2: PathHunter U2OS SREBP-2 Nuclear Translocation Cell Line, U18666A-stimulated
- Type: cell-based
- CONDITION_DESCRIPTION: PathHunter U2OS SREBP-2 nuclear translocation cells, U18666A 10 μM, overnight (16 hours)
pIC50: −log10 of the molar value.

Known results for compounds:
{"COMPOUND": "Cc1nnc(N2CCN(C(=O)CC[C@@H](C)[C@H]3CC[C@H]4[C@@H]5CC=C6C[C@@H](O)CC[C@]6(C)[C@H]5CC[C@]34C)C[C@@H]2C)o1", "pIC50": "> 6.60"}
{"COMPOUND": "Cc1cc(N2CCN(C(=O)CC[C@@H](C)[C@H]3CC[C@H]4[C@@H]5CC=C6C[C@@H](O)CC[C@]6(C)[C@H]5CC[C@]34C)CC2)sn1", "pIC50": "> 6.60"}

Asked: Notebook entry, SREBP-2 (Homo sapiens (Human), UniProt Q12772) assay: pIC50 of COc1ccc2ccnc(N3CCN(C(=O)CC[C@@H](C)[C@H]4CC[C@H]5[C@@H]6CC=C7C[C@@H](O)CC[C@]7(C)[C@H]6CC[C@]45C)CC3)c2c1 = ?
Given back: > 6.60

Asked: Notebook entry, SREBP-2 (Homo sapiens (Human), UniProt Q12772) assay: pIC50 of COC(=O)N1CCN(C(=O)CC[C@@H](C)[C@H]2CC[C@H]3[C@@H]4CC=C5C[C@](O)(C(F)(F)F)CC[C@]5(C)[C@H]4CC[C@]23C)CC1 [Example 419] = ?
Given back: 5.00 to 6.00

Asked: Notebook entry, SREBP-2 (Homo sapiens (Human), UniProt Q12772) assay: pIC50 of C[C@H](CCC(=O)N1CCN(c2ncncc2O)CC1)[C@H]1CC[C@H]2[C@@H]3CC=C4C[C@@H](O)CC[C@]4(C)[C@H]3CC[C@]12C = ?
Given back: > 6.60
